# System: BJ cells
# METHOD DESCRIPTION: MTS metabolic activity assay, BJ cells
# Type: cell-based
# CONDITION DESCRIPTION: Homo sapiens, 300 µM, 72 h, read-out: Cell metabolic activity (MTS), % of untreated control
OBSERVED PROPERTY: viability at 300 µM (%)
Write the value in % as a bare number.

Q) Identify measured viability at 300 µM associated with CC(C)C1SC(NC2CCCC2)=NC1=O (stereo not drawn)
A) 118

Q) Identify measured viability at 300 µM associated with CC1SC(NC2CCCC2)=NC1=O (stereo not drawn)
A) 109

Q) Identify measured viability at 300 µM associated with "O=C1N=C(NC2CCCC2)SC12CCC2"
A) 121

Q) Identify measured viability at 300 µM associated with "CC1(C)SC(NC2CCCC2)=NC1=O"
A) 119

Q) Identify measured viability at 300 µM associated with CCCC1SC(NC2CCCC2)=NC1=O (stereo not drawn)
A) 111

Q) Identify measured viability at 300 µM associated with O=C1N=C(NC2CCCC2)SC1c1ccc(Br)cc1 (stereo not drawn)
A) 57.3

Q) Identify measured viability at 300 µM associated with "O=C1N=C(NC2CCCC2)SC12CCCCC2"
A) 115

Q) Identify measured viability at 300 µM associated with CCC1SC(NC2CCCC2)=NC1=O (stereo not drawn)
A) 112

Q) Identify measured viability at 300 µM associated with O=C1N=C(NC2CCCC2)SC1c1ccccc1 (stereo not drawn)
A) 106

###

# Test system: human breast carcinoma (MDA-MB-231)
# METHOD DESCRIPTION: MTS metabolic activity assay, MDA-MB-231 cells
# Format: cell-based
# CONDITION DESCRIPTION: Homo sapiens; MDA-MB-231, 10 µM, 72 h; read-out: Cell metabolic activity (MTS), % of untreated control
OBSERVED PROPERTY: viability at 10 µM (%)
Write the value in % as a bare number.

Q) Identify measured viability at 10 µM associated with CC1SC(NC2CCCC2)=NC1=O (stereo not drawn)
A) 105

Q) Identify measured viability at 10 µM associated with "O=C1N=C(NC2CCCC2)SC12CCC2"
A) 87.2

Q) Identify measured viability at 10 µM associated with O=C1N=C(NC2CCCC2)SC1c1ccccc1 (stereo not drawn)
A) 96.2

###

# Test system: glioma (U-118 MG)
# METHOD DESCRIPTION: MTS metabolic activity assay, U-118 MG cells
# Format: cell-based
# CONDITION DESCRIPTION: Homo sapiens, U-118-MG; U118-MG, 50 µM, 72 h; read-out: Cell metabolic activity (MTS), % of untreated control
OBSERVED PROPERTY: viability at 50 µM (%)
Write the value in % as a bare number.

Q) Identify measured viability at 50 µM associated with "CC1(C)SC(NC2CCCC2)=NC1=O"
A) 116

Q) Identify measured viability at 50 µM associated with O=C1N=C(NC2CCCC2)SC1c1ccccc1 (stereo not drawn)
A) 114

Q) Identify measured viability at 50 µM associated with "O=C1N=C(NC2CCCC2)SC12CCC2"
A) 111

Q) Identify measured viability at 50 µM associated with O=C1N=C(NC2CCCC2)SC1c1ccc(Br)cc1 (stereo not drawn)
A) 105

Q) Identify measured viability at 50 µM associated with CCC1SC(NC2CCCC2)=NC1=O (stereo not drawn)
A) 111

Q) Identify measured viability at 50 µM associated with CC1SC(NC2CCCC2)=NC1=O (stereo not drawn)
A) 113

Q) Identify measured viability at 50 µM associated with CCCC1SC(NC2CCCC2)=NC1=O (stereo not drawn)
A) 110

Q) Identify measured viability at 50 µM associated with CC(C)C1SC(NC2CCCC2)=NC1=O (stereo not drawn)
A) 114

Q) Identify measured viability at 50 µM associated with "O=C1N=C(NC2CCCC2)SC12CCCCC2"
A) 116
